# Assayed Target: Histamine H4 receptor (Rattus norvegicus)
# Test: Antagonist activity at rat histamine H4 receptor assessed as decrease in intracellular calcium by FLIPR
# Assay type: functional, cell-based
# maps each entry to its pKb

Take a look at these entries with their results.
Compound	Assayed Target	Endpoint Name	Result
CN(C)CCOc1nc(N)nc2c1CCCC21CCCC1	Histamine H4 receptor (Rattus norvegicus)	pKb	< 6
Nc1nc(N2CCCNCC2)c2c(n1)C1(CCCC1)CCC2	Histamine H4 receptor (Rattus norvegicus)	pKb	< 5.32
Nc1nc(N2CC[C@@H](N)C2)c2c(n1)C1(CCCCC1)CCC2	Histamine H4 receptor (Rattus norvegicus)	pKb	< 4.96
Nc1nc2c(c(N3CCNCC3)n1)CCCCC2c1ccccc1 (stereo unspecified)	Histamine H4 receptor (Rattus norvegicus)	pKb	7.26
Nc1nc(N2CCNCC2)c2c(n1)C1(CCCC1)CCC2	Histamine H4 receptor (Rattus norvegicus)	pKb	5.42

// moving on: another record for pKb
Param readout = pKb; param system = Histamine H4 receptor (Rattus norvegicus); param query = Nc1nc(N2C[C@H]3CCCN[C@H]3C2)c2c(n1)C1(CCCC1)CCC2 ; response: value
< 6.6
